// values below are reported TGI
Tested on: DU-145 prostate
Experiment: NCI tumour cell line growth inhibition, 48 h
measured-parameter: TGI

molecule=NC1(C(=O)OCc2ccccc2)CCCC1 endpoint_result="37.5 µM"
molecule=CCOC(=O)c1cc2nc3ccccc3c(=O)n2c2ccccc12 endpoint_result="> 10 µM"
molecule=COc1cc(/C=C/c2cc(O)c(C(C)=O)c(O)c2)cc2c1O[C@]1(C)CC[C@@H](O)C(C)(C)[C@H]1C2 endpoint_result="> 100 µM"
molecule=NS(=O)(=O)c1cc2c(cc1Cl)NC(CCC(=O)O)=NS2(=O)=O endpoint_result="> 100 µM"
molecule=OCC#Cc1ccccc1C#Cc1ccccc1 endpoint_result="28.2 µM"
molecule="N#CC12C(=O)N=C(N)C1(C#N)C(c1ccco1)NC1=C2CCCC1 (stereo not drawn)" endpoint_result="> 100 µM"
molecule=O=C1c2ccccc2-c2c1c(-c1ccc(F)cc1)nc1ccc3ccccc3c21 endpoint_result="> 100 µM"
molecule=COc1cc(NCc2ccc3oc(=O)c(-c4ccccc4)nc3c2)cc(OC)c1OC endpoint_result="> 10 µM"
molecule=Cc1nc(N)c(N2CCN([N+](=O)[O-])CC2)c(=O)[nH]1 endpoint_result="> 100 µM"
molecule="Cc1ccccc1S(=O)(=O)OC1NS(=O)(=O)c2ccccc21 (stereo not drawn)" endpoint_result="> 100 µM"
molecule=Cc1ccc(C(=C2Sc3ccccc3S2)C(=C2Sc3ccccc3S2)c2ccc(C)s2)s1 endpoint_result="> 100 µM"
molecule="Cc1cn(C2CC(O)C(CO)O2)c(=O)[nH]c1=O (stereo not drawn)" endpoint_result="> 5000 µM"
molecule="CC1(C)C2CCC(=O)C1CC2 (stereo not drawn)" endpoint_result="> 100 µM"
molecule="C[C@@H]1CCC2[C@@H](C)[C@@H](OCC(CO[C@H]3OC4O[C@@]5(C)CC[C@H]6[C@H](C)CCC([C@H]3C)[C@@]46OO5)OC(=O)CCC(=O)O)OC3O[C@@]4(C)CC[C@@H]1[C@]32OO4 (stereo partly drawn)" endpoint_result="27.3 µM"
molecule=O=C(Nc1ccc(Cl)cc1)c1cccc(NC2=C(Cl)C(=O)N(Cc3ccccc3)C2=O)c1 endpoint_result="19.7 µM"
molecule="Nc1ncnc2c1nnn2C1OC(CO)C(O)C1O (stereo not drawn)" endpoint_result="1.91 µM"
molecule="CC1=NN(c2cccc(Cl)c2)C2(SCC(=O)N2c2nc3ccccc3s2)/C1=C\\c1ccccc1O (stereo not drawn)" endpoint_result="42.2 µM"
molecule="COc1ccc2c(c1)OCC1Cc3ccccc3OC21 (stereo not drawn)" endpoint_result="> 100 µM"

---

Test system: HOP-62 NSCLC
Experiment: NCI tumour cell line growth inhibition, 48 h
measured-parameter: TGI

compound="COc1ncnc(NS(=O)(=O)c2ccc(N=C3C(=O)N(CN4CCN(c5c(F)cc6c(=O)c(C(=O)O)cn(C7CC7)c6c5OC)CC4C)c4ccc(Cl)cc43)cc2)c1OC (centres undefined)" assayed_system="HOP-62 NSCLC" endpoint_result="> 50 µM"
compound="O=c1c2sccc2n(CC2COc3ccccc3O2)c(=O)n1O (centres undefined)" assayed_system="HOP-62 NSCLC" endpoint_result="> 100 µM"
compound=Cc1ccc(S(=O)(=O)Nc2ccccc2C(=O)c2ccc(C)c(C)c2)cc1 assayed_system="HOP-62 NSCLC" endpoint_result="> 100 µM"
compound=O=C(/C=C/c1ccc(Cl)cc1)c1ccc(Nc2ccnc3cc(Cl)ccc23)cc1 assayed_system="HOP-62 NSCLC" endpoint_result="> 100 µM"

---

Test system: RXF 393 renal
Experiment: NCI tumour cell line growth inhibition, 48 h
measured-parameter: TGI

compound=[O-][n+]1ccccc1Sc1nc(Sc2cccc[n+]2[O-])nc(Sc2cccc[n+]2[O-])n1 endpoint_result="2.23 µM"
compound=Cc1ccc(S(=O)(=O)Nc2ccccc2C(=O)c2ccc(C)c(C)c2)cc1 endpoint_result="> 100 µM"
compound=Cc1c(S(=O)(=O)c2ccccc2)c(N)n(CCN(C)C)c1C endpoint_result="> 100 µM"
compound=Cc1c2c(nn1-c1ccc(S(=O)(=O)/N=C3\SCCC(=O)N3c3ccccc3)cc1)-c1ccccc1CC2 endpoint_result="> 100 µM"
compound=O=C1c2cc3c(cc2-c2c1c1ccc(F)cc1c(=O)n2CCCNCCO)OCO3 endpoint_result="0.322 µM"
compound="NC1=NCC(CN2CCOCC2)O1 (centres undefined)" endpoint_result="> 100 µM"
compound="Cc1cn(C2CC(O)C(CO)O2)c(=O)[nH]c1=O (centres undefined)" endpoint_result="> 5000 µM"
compound="COC1=CC(=O)C(C2CC(=O)c3c(O)cc(O)cc3O2)=CC1=O (centres undefined)" endpoint_result="34.8 µM"
compound=Cc1cc(I)cc(CN(C)CCCN2CCCCC2)c1O endpoint_result="26.6 µM"
compound=CCOC(=O)c1cc2nc3ccccc3c(=O)n2c2ccccc12 endpoint_result="> 10 µM"
compound=Cc1cc(O)c(/C=N/C(=S)NCc2ccccc2)c(=O)o1 endpoint_result="> 100 µM"
compound=Cc1ccc(C(=C2Sc3ccccc3S2)C(=C2Sc3ccccc3S2)c2ccc(C)s2)s1 endpoint_result="> 100 µM"
compound=CSC(=S)N(C)C endpoint_result="> 100 µM"
compound="CC1(C)CCCC2OC2CCC(C)(C)C1=O (centres undefined)" endpoint_result="> 100 µM"
compound="Cc1ccc(-c2[nH]c(=O)n(C3OC(CO)C(O)C(O)C3O)c(=O)c2C#N)cc1 (centres undefined)" endpoint_result="> 100 µM"
compound=CC(=O)/C(=C\c1cccc([N+](=O)[O-])c1)C(=O)Nc1ccccc1C endpoint_result="> 100 µM"
compound=COc1cc(OC)cc(-c2cc(=O)c3c(OC)c(OC)c(OC)c(OC)c3o2)c1 endpoint_result="84.8 µM"
compound=CCN1CCN(c2nc(C)cc(N(CCNc3ccnc4cc(Cl)ccc34)Cc3ccc4c(c3)OCO4)n2)CC1 endpoint_result="3.08 µM"
compound=Nc1ncnc2n[nH]c(Nc3ccc(F)cc3)c12 endpoint_result="> 100 µM"

---

Test system: T-47D breast
Experiment: NCI tumour cell line growth inhibition, 48 h
measured-parameter: TGI (µM)

molecule=Cc1cc2c3c(nc4ccccc42)C(=O)c2ccccc2-c3n1 result_unit=µM inequality_operator=> endpoint_result=100
molecule=O=C(CCc1nnc2sc(-c3ccc(Cl)cc3Cl)nn12)c1nc2ncccc2[nH]1 result_unit=µM inequality_operator== endpoint_result=5.03
molecule=NS(=O)(=O)c1cc2c(cc1Cl)NC(CCC(=O)O)=NS2(=O)=O result_unit=µM inequality_operator=> endpoint_result=100
molecule="COc1cc(C2c3cc4c(cc3OC(NN)C2C)OCO4)cc(OC)c1OC (stereo not given)" result_unit=µM inequality_operator=> endpoint_result=100
molecule=COc1cc(/C=C/c2cc(O)c(C(C)=O)c(O)c2)cc2c1O[C@]1(C)CC[C@@H](O)C(C)(C)[C@H]1C2 result_unit=µM inequality_operator== endpoint_result=64.6

---

Tested on: SF-295 CNS
Assay: NCI tumour cell line growth inhibition, 48 h; in the data active = GI50 below about 0.43 µM; inactive = the rest
Possible outcomes: 1 (active), 0 (inactive)

compound=COc1cccc(-c2nc(-c3ccc(NC(=O)C(C)C)cc3)[nH]c2-c2ccnc(Br)c2)c1 label_class=1
compound="C[C@@H]1CCC2[C@@H](C)[C@@H](OCC(CO[C@H]3OC4O[C@@]5(C)CC[C@H]6[C@H](C)CCC([C@H]3C)[C@@]46OO5)OC(=O)CCC(=O)O)OC3O[C@@]4(C)CC[C@@H]1[C@]32OO4 (stereo partly drawn)" label_class=1
compound=Cc1cc(I)cc(CN(C)CCCN2CCCCC2)c1O label_class=0
compound=CO[C@H]1/C=C(/C)CCC[C@H](C)[C@H](O)[C@@H](C)C(=O)C(C)(C)[C@@H](O)CC(=O)O[C@@H]1/C(C)=C/c1csc(C)n1 label_class=1
compound=O=C(CCc1nnc2sc(-c3ccc(Cl)cc3Cl)nn12)c1nc2ncccc2[nH]1 label_class=0
compound=[Cl-].[La+3].[O-]/N=C(\c1ccccc1)c1ccccn1.[O-]/N=C(\c1ccccc1)c1ccccn1.[O-]/N=C(\c1ccccc1)c1ccccn1 label_class=0
compound=OCCCCCNCc1cc2cc3c(cc2c2cc(OCc4ccccc4)ccc12)OCO3 label_class=0
compound=Nc1ncnc2n[nH]c(Nc3ccc(F)cc3)c12 label_class=0

---

In this section we review reported TGI values for a set of molecules.
Tested on: HOP-62 NSCLC
Assay: NCI tumour cell line growth inhibition, 48 h
measured-parameter: TGI (µM)

molecule=CCOC(=O)c1nc2c(nc1C(=O)OCC)C(=O)c1ccccc1C2=O measured_parameter=TGI inequality_operator== endpoint_result=3.78
molecule="COc1cc2c(c(OC)c1OC)-c1ccc(OC)c(=O)cc1C(NC(=O)c1ccc(N=[N+]=[N-])cc1)CC2 (configuration not stated)" measured_parameter=TGI inequality_operator=> endpoint_result=95.1
molecule=O=C1c2cc3c(cc2-c2c1c1ccc(F)cc1c(=O)n2CCCNCCO)OCO3 measured_parameter=TGI inequality_operator== endpoint_result=0.496
molecule=NS(=O)(=O)c1cc(Br)c(N=Nc2ccc(O)c3ncccc23)c(Br)c1 measured_parameter=TGI inequality_operator=> endpoint_result=100
molecule=CC(C)=Cc1cc(C(=O)Nc2ccc(Cl)c(Cl)c2)nc(N)n1 measured_parameter=TGI inequality_operator=> endpoint_result=100
molecule="Cc1ccc2c(c1)C(=O)C1(Cc3ccccc3C1=O)C2 (configuration not stated)" measured_parameter=TGI inequality_operator=> endpoint_result=100
molecule="Cc1cccc2c1CC1(C2)Cc2c(C)cccc2C1=O (configuration not stated)" measured_parameter=TGI inequality_operator== endpoint_result=54.5
